Reported IC50 values follow for various compounds
- System: IL-1 production in LPS-stimulated PBMCs
- assay_overview: Inhibition of IL-1 production in LPS-stimulated PBMCs ("cell")
- Assay type: cell-based, human
- condition_context: Homo sapiens, PBMC
endpoint_name: IC50

| compound | endpoint_name | result |
| --- | --- | --- |
| O=c1ncn2nc(Sc3ccccc3)ccc2c1-c1ccc(Cl)c(Cl)c1 | IC50 | ≥ 500 nM |
| CC(=O)Nc1ccc(C2=C3C=CC(Sc4ccc(F)cc4)=NN3CNC2=O)c(Cl)c1 | IC50 | ≤ 100 nM |
| NC(=O)C(c1cccc(-c2cccc(C(F)(F)F)c2)n1)c1c(F)cccc1Cl (stereo not drawn) | IC50 | ≥ 500 nM |
| COc1ccccc1-c1c(=O)ncn2nc(Sc3ccccc3)ccc12 | IC50 | ≥ 500 nM |
| O=C1NCN2N=C(Sc3ccccc3Br)C=CC2=C1c1c(Cl)cccc1Cl | IC50 | ≤ 100 nM |
| Nc1ccc(F)cc1SC1=NN2CNC(=O)C(c3c(Cl)cccc3Cl)=C2C=C1 | IC50 | 100 to 500 nM |
| O=C1NCN2N=C(Sc3ccccn3)C=CC2=C1c1c(Cl)cccc1Cl | IC50 | ≥ 500 nM |
| CCc1ccccc1Sc1ccc2c(-c3c(Cl)cccc3Cl)c(=O)ncn2n1 | IC50 | ≥ 500 nM |
| NC(=O)C(c1cccc(-c2ccccc2CNc2ccccc2)n1)c1c(Cl)cccc1Cl (stereo not drawn) | IC50 | ≥ 500 nM |
| COc1ccc(C2=C3C=CC(Sc4ccc(F)cc4)=NN3CNC2=O)c(Cl)c1OC | IC50 | ≤ 100 nM |
| NC(=O)C(c1cccc(-c2ccccc2CO)n1)c1c(Cl)cccc1Cl (stereo not drawn) | IC50 | ≤ 100 nM |
| O=C1NCN2N=C(Sc3ccc(F)cc3Cl)C=CC2=C1c1cc2c(cc1Cl)OCO2 | IC50 | ≤ 100 nM |
| O=C1NCN2N=C(Sc3ccccc3CO)C=CC2=C1c1c(Cl)cccc1Cl | IC50 | 100 to 500 nM |
| NC(=O)C(c1cccc(-c2cccc(Cl)c2)n1)c1c(F)cccc1Cl (stereo not drawn) | IC50 | 100 to 500 nM |
| Cc1nc(=O)c(-c2c(Cl)cccc2Cl)c2ccc(Sc3ccc(F)c(Cl)c3)nn12 | IC50 | 100 to 500 nM |
| O=C1NCN2C=C(Sc3ccc(F)cc3)C=CC2=C1c1c(Cl)cccc1Cl | IC50 | ≥ 500 nM |
| COc1cc(Cl)c(-c2c(=O)ncn3nc(Sc4ccc(F)cc4)ccc23)cc1OC | IC50 | ≥ 500 nM |
| NC(=O)N(c1cccc(-c2ccccc2)n1)c1c(Cl)cccc1Cl | IC50 | 100 to 500 nM |

* * *

Overview of reported pKi across a group of compounds:
- tested_target: activated p38 (Homo sapiens, UniProt Q16539)
- Sequence (Q16539 whole entry): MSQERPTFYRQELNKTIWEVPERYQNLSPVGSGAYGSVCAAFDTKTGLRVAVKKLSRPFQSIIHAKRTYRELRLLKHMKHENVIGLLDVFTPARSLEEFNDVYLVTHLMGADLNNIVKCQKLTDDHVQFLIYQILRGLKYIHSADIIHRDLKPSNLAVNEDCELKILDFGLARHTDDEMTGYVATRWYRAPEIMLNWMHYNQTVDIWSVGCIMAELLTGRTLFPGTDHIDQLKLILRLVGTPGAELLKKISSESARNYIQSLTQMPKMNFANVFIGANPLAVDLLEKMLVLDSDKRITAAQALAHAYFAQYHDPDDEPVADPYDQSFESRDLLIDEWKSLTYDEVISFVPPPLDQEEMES
- assay_overview: Inhibition of ATPase activity
- condition_context: ATPase activity of activated p38 (60 nM), 30° C., 30 minutes
pKi: −log10 of the molar value.

| smiles_input | pKi |
| --- | --- |
| O=c1ncn2nc(Sc3ccccc3)ccc2c1-c1ccc(Cl)cc1Cl | 5.30 |
| O=c1ncn2nc(Sc3ccccc3)ccc2c1-c1ccc(F)cc1 | 4.82 |
| Cc1ccc(Sc2ccc3c(-c4ccc(Cl)cc4Cl)c(=O)ncn3n2)cc1 | 5.54 |
| O=c1ncn2nc(Sc3ccccc3)ccc2c1-c1c(Cl)cccc1Cl | 6.40 |

* * *

Documented IC50 across a set of compounds
- Tested on: IL-6 production in whole blood
- assay_overview: Inhibition of IL-6 production in LPS-stimulated whole blood ("WB")
- Assay type: cell-based, human
- condition_context: Homo sapiens

| compound | tested_target | IC50 |
| --- | --- | --- |
| Nc1ccc(Cl)c(C2=C3C=CC(Sc4ccc(F)cc4)=NN3CNC2=O)c1Cl [Compound 125] | IL-6 production in whole blood | ≥ 500 nM |
| COC(=O)c1ccccc1SC1=NN2CNC(=O)C(c3c(Cl)cccc3Cl)=C2C=C1 [Compound 101] | IL-6 production in whole blood | 250 to 500 nM |
| NC(=O)C(c1cccc(-c2ccc(F)cc2)n1)c1c(Cl)cccc1Cl (stereo not drawn) [Compound 309] | IL-6 production in whole blood | ≥ 500 nM |
| O=C1NCN2N=C(Sc3ccc(F)cc3)C=CC2=C1c1c(Cl)cccc1Cl [Compound 103] | IL-6 production in whole blood | 250 to 500 nM |
| NC(=O)C(c1cccc(-c2ccccc2)n1)c1c(F)cccc1Cl (stereo not drawn) [Compound 306] | IL-6 production in whole blood | ≥ 500 nM |
| NC(=O)C(c1cccc(-c2ccccc2)n1)c1c(Cl)cccc1Cl (stereo not drawn) [202/301] | IL-6 production in whole blood | ≥ 500 nM |
| O=C(CN1CCOCC1)Nc1ccc(C2=C3C=CC(Sc4ccc(F)cc4)=NN3CNC2=O)c(Cl)c1 [Compound 144] | IL-6 production in whole blood | 250 to 500 nM |
| O=c1ncn2nc(Sc3ccc(F)cc3Cl)ccc2c1-c1c(Cl)cccc1Cl [Compound 38] | IL-6 production in whole blood | 250 to 500 nM |
| O=C(O)c1ccccc1Sc1ccc2c(-c3c(Cl)cccc3Cl)c(=O)ncn2n1 [Compound 27] | IL-6 production in whole blood | ≥ 500 nM |

* * *

- System: IL-1 production in LPS-stimulated PBMCs
- assay_overview: Inhibition of IL-1 production in LPS-stimulated PBMCs ("cell")
- Type: cell-based, human
- condition_context: Homo sapiens, PBMC
pIC50: −log10 of the molar value.

| compound | tested_target | pIC50 |
| --- | --- | --- |
| COc1cccc(-c2cccc(C(C(N)=O)c3c(Cl)cccc3Cl)n2)c1 (stereo not drawn) [Compound 322] | IL-1 production in LPS-stimulated PBMCs | ≤ 6.30 |
| CC(C)c1ccccc1Sc1ccc2c(-c3c(Cl)cccc3Cl)c(=O)ncn2n1 [Compound 18] | IL-1 production in LPS-stimulated PBMCs | ≤ 6.30 |
| NC(=O)C(c1cccc(-c2ccccc2)n1)c1c(Cl)cccc1Cl (stereo not drawn) [202/301] | IL-1 production in LPS-stimulated PBMCs | 6.30 to 7.00 |
| Cc1ccccc1-c1cccc(C(C(N)=O)c2c(F)cccc2Cl)n1 (stereo not drawn) [Compound 335] | IL-1 production in LPS-stimulated PBMCs | ≤ 6.30 |
| O=C1NCN2N=C(Sc3ccccc3O)C=CC2=C1c1c(Cl)cccc1Cl [Compound 114] | IL-1 production in LPS-stimulated PBMCs | ≥ 7.00 |
| Cc1c(Sc2ccccc2)nn2cnc(=O)c(-c3c(Cl)cccc3Cl)c2c1C [Compound 13] | IL-1 production in LPS-stimulated PBMCs | ≤ 6.30 |
| NC(=O)C(c1cccc(-c2ccc(F)cc2)n1)c1c(F)cccc1Cl (stereo not drawn) [Compound 329] | IL-1 production in LPS-stimulated PBMCs | 6.30 to 7.00 |
| Cc1ccc(SC2=NN3CNC(=O)C(c4c(Cl)cccc4Cl)=C3C=C2)c(C)c1 [Compound 113] | IL-1 production in LPS-stimulated PBMCs | ≥ 7.00 |
| NC(=O)Nc1cc(F)ccc1SC1=NN2CNC(=O)C(c3c(Cl)cccc3Cl)=C2C=C1 [Compound 128] | IL-1 production in LPS-stimulated PBMCs | ≤ 6.30 |

* * *

- tested_target: activated p38 (Homo sapiens)
- assay_overview: Inhibition of phosphorylation of EGF receptor peptide ("kinase")
- condition_context: inhibition of phosphorylation of EGF receptor peptide by activated p38
endpoint_name: IC50

| molecule | result |
| --- | --- |
| N#Cc1ccccc1SC1=NN2CNC(=O)C(c3c(Cl)cccc3Cl)=C2C=C1 [Compound 116] | ≤ 100 nM |
| Cc1cc(Cl)c(-c2c(=O)ncn3nc(Sc4ccc(F)cc4)ccc23)cc1C [Compound 44] | 100 to 1000 nM |
| Cc1ccccc1-c1c(=O)ncn2nc(Sc3ccccc3)ccc12 [Compound 8] | ≥ 1000 nM |
| NC(=O)C(c1cccc(-c2ccc(F)c(Cl)c2)n1)c1c(Cl)cccc1Cl (centres unmarked) [Compound 313] | 100 to 1000 nM |
| CC(=O)Nc1ccc(-c2c(=O)ncn3nc(Sc4ccc(F)cc4)ccc23)c(Cl)c1 [Compound 51] | 100 to 1000 nM |

* * *

Measured IC50 accompanies every entry in the list below.
- Test system: IL-6 production in whole blood
- assay_overview: Inhibition of IL-6 production in LPS-stimulated whole blood ("WB")
- Assay type: cell-based, human
- condition_context: Homo sapiens
endpoint_name: IC50

| compound | result |
| --- | --- |
| NC(=O)C(c1cccc(-c2ccc(Cl)cc2Cl)n1)c1c(F)cccc1Cl (centres unmarked) [Compound 346] | ≥ 500 nM |
| Cc1ccccc1-c1cccc(N(C(N)=O)c2c(Cl)cccc2Cl)n1 [Compound 402] | ≥ 500 nM |
| O=C(CCl)Nc1ccc(-c2c(=O)ncn3nc(Sc4ccc(F)cc4)ccc23)c(Cl)c1 [Compound 49] | ≥ 500 nM |
| NC(=O)N(c1cccc(-c2ccccc2)n1)c1c(Cl)cccc1Cl [Compound 401] | ≥ 500 nM |
| Cc1cc(F)ccc1-c1cccc(N(C(N)=O)c2c(Cl)cccc2Cl)n1 [Compound 409] | 250 to 500 nM |
| Nc1ccc(Cl)c(-c2c(=O)ncn3nc(Sc4ccc(Br)cc4)ccc23)c1Cl [Compound 37] | ≥ 500 nM |
| CN(C)/C=N\c1ccc(C2=C3C=CC(Sc4ccc(F)cc4Cl)=NN3CNC2=O)c(Cl)c1 [Compound 140] | 250 to 500 nM |
| COC(=O)c1ccccc1Sc1ccc2c(-c3c(Cl)cccc3Cl)c(=O)ncn2n1 [Compound 26] | ≥ 500 nM |
| Cc1ccccc1SC1=NN2CNC(=O)C(c3c(Cl)cccc3Cl)=C2C=C1 [Compound 102] | 250 to 500 nM |
| CC(C)(C)OC(=O)Nc1ccccc1SC1=NN2CNC(=O)C(c3c(Cl)cccc3Cl)=C2C=C1 [Compound 112] | ≥ 500 nM |
| Nc1ccccc1SC1=NN2CNC(=O)C(c3c(Cl)cccc3Cl)=C2C=C1 [Compound 115] | ≥ 500 nM |
| Cc1ccccc1Sc1ccc2c(-c3c(Cl)cccc3Cl)c(=O)ncn2n1 [Compound 23] | ≥ 500 nM |
| O=C1NCN2N=C(Sc3ccc(F)cc3Cl)C=CC2=C1c1cc2c(cc1Cl)OCO2 [Compound 136] | 250 to 500 nM |
| Cc1cc(F)ccc1-c1cccc(N(C(N)=O)c2cc3c(cc2Cl)OCO3)n1 [Compound 411] | ≥ 500 nM |
| NC(=O)C(c1ccc(Sc2ccccc2)cn1)c1c(Cl)cccc1Cl (centres unmarked) [Compound 201] | ≥ 500 nM |
| O=C(CCl)Nc1ccc(C2=C3C=CC(Sc4ccc(F)cc4)=NN3CNC2=O)c(Cl)c1 [Compound 141] | ≥ 500 nM |
| O=C1NCN2N=C(Sc3ccccc3C(=O)O)C=CC2=C1c1c(Cl)cccc1Cl [Compound 104] | ≥ 500 nM |
